assay_system: T1, human Trop-2-His (human, UniProt P09758 27-274, limits assumed)
T1 construct: by analogy with the macaque construct it is probably the extracellular domain with a His tag; also called Trop-2-His protein
T1 sequence: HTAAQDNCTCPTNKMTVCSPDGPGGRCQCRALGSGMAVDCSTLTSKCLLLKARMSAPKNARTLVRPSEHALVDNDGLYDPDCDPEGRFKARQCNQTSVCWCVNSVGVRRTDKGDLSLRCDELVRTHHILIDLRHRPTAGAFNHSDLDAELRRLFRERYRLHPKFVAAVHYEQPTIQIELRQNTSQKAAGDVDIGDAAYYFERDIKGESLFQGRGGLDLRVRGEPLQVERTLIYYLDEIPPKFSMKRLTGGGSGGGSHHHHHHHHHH
measurement_description: SPR (Biacore 8K), antibody captured, Trop-2-His as analyte
Experimental: The affinity of antibodies for human Trop-2-His was detected in the form of antibody capturing. […] The association and dissociation curves were collected by Biacore 8K Control Software 3.0 in real time, and the data were analyzed by Biacore Insight Evaluation Software 3.0. […]
Would you kindly list kon for each of these binders?
Output should be the measured figure followed by the unit it is expressed in.

Look up kon of hz-Ab2-2.4 (antibody, human IgG1, kappa, V domains shown, Humanized antibody) VH: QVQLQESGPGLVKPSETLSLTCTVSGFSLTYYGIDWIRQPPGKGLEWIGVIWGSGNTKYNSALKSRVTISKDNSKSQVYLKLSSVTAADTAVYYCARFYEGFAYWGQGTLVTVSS VL: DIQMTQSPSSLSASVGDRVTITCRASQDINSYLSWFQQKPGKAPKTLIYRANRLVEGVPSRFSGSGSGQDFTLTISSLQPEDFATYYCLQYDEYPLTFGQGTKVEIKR and report it. 415000 M⁻¹ s⁻¹

Look up kon of hz-Ab2-2.2 (antibody, human IgG1, kappa, V domains shown, Humanized antibody) VH: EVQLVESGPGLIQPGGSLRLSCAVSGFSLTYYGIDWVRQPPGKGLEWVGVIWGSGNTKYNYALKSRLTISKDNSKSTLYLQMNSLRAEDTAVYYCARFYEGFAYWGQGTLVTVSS VL: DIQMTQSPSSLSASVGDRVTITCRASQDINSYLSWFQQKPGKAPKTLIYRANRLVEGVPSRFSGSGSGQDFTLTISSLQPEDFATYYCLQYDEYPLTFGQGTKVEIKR and report it. 245000 M⁻¹ s⁻¹

Look up kon of hz-Ab2-2.1 (antibody, human IgG1, kappa, V domains shown, Humanized antibody) VH: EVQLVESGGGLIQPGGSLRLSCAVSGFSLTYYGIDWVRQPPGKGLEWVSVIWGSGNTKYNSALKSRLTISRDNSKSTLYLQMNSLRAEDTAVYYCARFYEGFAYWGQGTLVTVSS VL: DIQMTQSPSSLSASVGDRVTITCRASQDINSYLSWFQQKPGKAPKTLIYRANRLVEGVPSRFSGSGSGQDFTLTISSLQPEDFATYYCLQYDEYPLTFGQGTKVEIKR and report it. 336000 M⁻¹ s⁻¹

Look up kon of hz-Ab35-2.1 (antibody, human IgG1, kappa, V domains shown, Humanized antibody) VH: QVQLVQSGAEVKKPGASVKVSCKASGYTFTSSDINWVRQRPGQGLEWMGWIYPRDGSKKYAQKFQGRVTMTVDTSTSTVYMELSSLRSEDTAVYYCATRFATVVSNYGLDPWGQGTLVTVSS VL: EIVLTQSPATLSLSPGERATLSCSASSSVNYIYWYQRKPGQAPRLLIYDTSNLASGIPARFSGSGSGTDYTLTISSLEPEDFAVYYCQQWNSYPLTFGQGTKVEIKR and report it. 436000 M⁻¹ s⁻¹

Look up kon of hz-Ab2-2.3 (antibody, human IgG1, kappa, V domains shown, Humanized antibody) VH: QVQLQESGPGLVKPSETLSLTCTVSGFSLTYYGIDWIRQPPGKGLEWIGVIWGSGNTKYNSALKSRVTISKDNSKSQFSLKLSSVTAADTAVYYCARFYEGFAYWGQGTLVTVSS VL: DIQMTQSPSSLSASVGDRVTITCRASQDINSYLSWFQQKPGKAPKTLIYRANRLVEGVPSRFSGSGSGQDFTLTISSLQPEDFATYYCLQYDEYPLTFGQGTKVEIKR and report it. 237000 M⁻¹ s⁻¹
